Assay: […] required for antitumor activity against Ehrlich ascites carcinoma cells in […] mice.
Format: functional, Mus musculus
measurement.label: MED (mg kg-1 5day-1)
The figure you give is taken to be in mg kg-1 5day-1; do not add the unit.

Request the reported MED associated with COCCN(C(=O)N(CCCl)N=O)C1OC(CO)C(OC2OC(CO)C(O)C(O)C2O)C(O)C1O (configuration not stated)
3.12

For C=C(C)CN(C(=O)N(CCCl)N=O)C1OC(CO)C(OC2OC(CO)C(O)C(O)C2O)C(O)C1O (configuration not stated) , what is its reported MED?
1.56

Quick check: MED of O=NN(CCCl)C(=O)N(CC1CCCO1)C1OC(CO)C(OC2OC(CO)C(O)C(O)C2O)C(O)C1O (configuration not stated) ?
3.12

Reported MED, molecule O=NN(CCCl)C(=O)N(CC1CC1)C1OC(CO)C(OC2OC(CO)C(O)C(O)C2O)C(O)C1O (configuration not stated) : ____
1.56

Requested field: MED. Item: C=CCN(C(=O)N(CCCl)N=O)C1OC(CO)C(OC2OC(CO)C(O)C(O)C2O)C(O)C1O (configuration not stated)
1.56

MED for O=NN(CCCl)C(=O)N(CC1CCCCC1)C1OC(CO)C(OC2OC(CO)C(O)C(O)C2O)C(O)C1O (configuration not stated) ?
3.12

I'd like to know its MED. The molecule in question is COCCCN(C(=O)N(CCCl)N=O)C1OC(CO)C(OC2OC(CO)C(O)C(O)C2O)C(O)C1O (configuration not stated)
3.12

For CCCCCN(C(=O)N(CCCl)N=O)C1OC(CO)C(OC2OC(CO)C(O)C(O)C2O)C(O)C1O (configuration not stated) , what is its reported MED?
3.12

Requested field: MED. Item: CC(C)CN(C(=O)N(CCCl)N=O)C1OC(CO)C(OC2OC(CO)C(O)C(O)C2O)C(O)C1O (stereo in doubt; 63)
100

What MED value was documented for this molecule, CCOCCN(C(=O)N(CCCl)N=O)C1OC(CO)C(OC2OC(CO)C(O)C(O)C2O)C(O)C1O (configuration not stated) ?
3.12

Give its MED value. Item: CCCCN(C(=O)N(CCCl)N=O)C1OC(CO)C(OC2OC(CO)C(O)C(O)C2O)C(O)C1O (configuration not stated)
6.25

# query: MED of entry C=CCCN(C(=O)N(CCCl)N=O)C1OC(CO)C(OC2OC(CO)C(O)C(O)C2O)C(O)C1O (configuration not stated)
1.56

Values were extracted from ChEMBL document CHEMBL1122043.
